Where do the numbers come from? From PubChem BioAssay AID1963441.

System: NCI-H1876 complex spheroid growth, % test/control
Assay: Anticancer human tumor NCI-H1876 cell line growth inhibition [Asc]
Conditions: second compound 0.3 µM; first compound 3.16 µM; stronger effect = lower value
Measured viability, T/C, listed per entry for reference.
Report the figure in % without appending any unit label.

Previously resolved entries follow.
{"molecule": "C#Cc1c(F)ccc2cc(O)cc(-c3ncc4c(N5CC6CCC(C5)N6)nc(OCC56CCCN5CC(F)C6)nc4c3F)c12 (centres undefined) + CCN1C(C(=O)NC23CCC(C(=O)O)(CC2)CC3)C(c2cccc(Cl)c2F)C2(C(=O)Nc3cc(Cl)ccc32)C12CCCCC2", "value units": "%", "viability, T/C": 96.5}
{"molecule": "C=C(F)C(=O)N1CCN(c2nc(OCC3CCCN3C)nc3c2CCN(c2cccc4cccc(Cl)c24)C3)CC1CC#N (centres undefined) + CCN1C(C(=O)NC23CCC(C(=O)O)(CC2)CC3)C(c2cccc(Cl)c2F)C2(C(=O)Nc3cc(Cl)ccc32)C12CCCCC2", "value units": "%", "viability, T/C": 111}
{"molecule": "C=CC(=O)N1CCN(c2nc(=O)n(-c3c(C)ccnc3C(C)C)c3nc(-c4c(O)cccc4F)c(F)cc23)C(C)C1 (centres undefined) + CCN1C(C(=O)NC23CCC(C(=O)O)(CC2)CC3)C(c2cccc(Cl)c2F)C2(C(=O)Nc3cc(Cl)ccc32)C12CCCCC2", "value units": "%", "viability, T/C": 114}

Next molecule, viability, T/C to be filled in.
Entry under review: O=C(c1cc(Cc2n[nH]c(=O)c3ccccc23)ccc1F)N1CCN(C(=O)C2CC2)CC1 + CCN1C(C(=O)NC23CCC(C(=O)O)(CC2)CC3)C(c2cccc(Cl)c2F)C2(C(=O)Nc3cc(Cl)ccc32)C12CCCCC2 . Reported viability, T/C? 112

---

Tested on: NCI-H1876 complex spheroid growth, % test/control
Assay: Anticancer human tumor NCI-H1876 cell line growth inhibition [Asc]; active = viability on the fitted dose curve at most 10% of control; inactive = the rest;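 further: compound exposure lasted 7 days starting three days after seeding; 100% = DMSO vehicle control wells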
Conditions: second compound 3.16 µM; first compound 10 µM
Mark one answer only. Choices: active, inactive

Use the examples below as a reference point.
{"compound": "C#Cc1c(F)ccc2cc(O)cc(-c3ncc4c(N5CC6CCC(C5)N6)nc(OCC56CCCN5CC(F)C6)nc4c3F)c12 (stereo not drawn) + Cc1c(S(C)(=O)=O)c(-c2cc(F)cc(N3CCN(c4ccc(NS(=O)(=O)c5ccc(NC(CCN6CCC(C(=O)OCCCP(=O)(O)O)CC6)CSc6ccccc6)c(S(=O)(=O)C(F)(F)F)c5)cc4)CC3)c2)c(-c2ccc(Cl)cc2)n1C(C)C", "assigned category": "inactive"}
{"compound": "C=C(F)C(=O)N1CCN(c2nc(OCC3CCCN3C)nc3c2CCN(c2cccc4cccc(Cl)c24)C3)CC1CC#N (stereo not drawn) + Cc1c(S(C)(=O)=O)c(-c2cc(F)cc(N3CCN(c4ccc(NS(=O)(=O)c5ccc(NC(CCN6CCC(C(=O)OCCCP(=O)(O)O)CC6)CSc6ccccc6)c(S(=O)(=O)C(F)(F)F)c5)cc4)CC3)c2)c(-c2ccc(Cl)cc2)n1C(C)C", "assigned category": "active"}

Now for a further compound.
Tell me the recorded outcome of this test for O=C(c1cc(Cc2n[nH]c(=O)c3ccccc23)ccc1F)N1CCN(C(=O)C2CC2)CC1 + Cc1c(S(C)(=O)=O)c(-c2cc(F)cc(N3CCN(c4ccc(NS(=O)(=O)c5ccc(NC(CCN6CCC(C(=O)OCCCP(=O)(O)O)CC6)CSc6ccccc6)c(S(=O)(=O)C(F)(F)F)c5)cc4)CC3)c2)c(-c2ccc(Cl)cc2)n1C(C)C . inactive

---

Tested on: NCI-H1876 complex spheroid growth, % test/control
Experiment: Anticancer human tumor NCI-H1876 cell line growth inhibition [Asc];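 further: compound exposure lasted 7 days starting three days after seeding; 100% = DMSO vehicle control wells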
Details: second compound 0.949 µM; first compound 3.16 µM; stronger effect = lower value
Measured viability, T/C, listed per entry for reference.
Report the figure in % without appending any unit label.

{"compound": "O=C(c1cc(Cc2n[nH]c(=O)c3ccccc23)ccc1F)N1CCN(C(=O)C2CC2)CC1 + CCN1C(C(=O)NC23CCC(C(=O)O)(CC2)CC3)C(c2cccc(Cl)c2F)C2(C(=O)Nc3cc(Cl)ccc32)C12CCCCC2", "value units": "%", "viability, T/C": 117}
{"compound": "C#Cc1c(F)ccc2cc(O)cc(-c3ncc4c(N5CC6CCC(C5)N6)nc(OCC56CCCN5CC(F)C6)nc4c3F)c12 (centres undefined) + CCN1C(C(=O)NC23CCC(C(=O)O)(CC2)CC3)C(c2cccc(Cl)c2F)C2(C(=O)Nc3cc(Cl)ccc32)C12CCCCC2", "value units": "%", "viability, T/C": 116}
{"compound": "C=CC(=O)N1CCN(c2nc(=O)n(-c3c(C)ccnc3C(C)C)c3nc(-c4c(O)cccc4F)c(F)cc23)C(C)C1 (centres undefined) + CCN1C(C(=O)NC23CCC(C(=O)O)(CC2)CC3)C(c2cccc(Cl)c2F)C2(C(=O)Nc3cc(Cl)ccc32)C12CCCCC2", "value units": "%", "viability, T/C": 118}

Next compound, viability, T/C to be filled in.
Entry under review: C=C(F)C(=O)N1CCN(c2nc(OCC3CCCN3C)nc3c2CCN(c2cccc4cccc(Cl)c24)C3)CC1CC#N (centres undefined) + CCN1C(C(=O)NC23CCC(C(=O)O)(CC2)CC3)C(c2cccc(Cl)c2F)C2(C(=O)Nc3cc(Cl)ccc32)C12CCCCC2 . Reported viability, T/C? 109

---

Measured viability, T/C, listed per entry for reference.
Test system: NCI-H1876 complex spheroid growth, % test/control
Experiment: Anticancer human tumor NCI-H1876 cell line growth inhibition [Asc];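 further: compound exposure lasted 7 days starting three days after seeding; 100% = DMSO vehicle control wells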
Conditions: second compound 1 µM; first compound 0.0316 µM; stronger effect = lower value
Description: Multicellular complex tumor spheroid response to apoptosis pathway targeting inhibitors Alrizomadlin, Pelcitoclax, and Dasminapant in combination with a variety of drugs and investigational agents in selected tumor cell lines […] Compounds. […] If the clinical Cmax for an agent had not been determined, the highest concentration tested was 10 microM. […]
Report the figure in % without appending any unit label.

Previously resolved entries follow.
{"compound": "CCN1CCN(Cc2ccc(Nc3ncc(F)c(-c4cc(F)c5nc(C)n(C(C)C)c5c4)n3)nc2)CC1 + Cc1c(S(C)(=O)=O)c(-c2cc(F)cc(N3CCN(c4ccc(NS(=O)(=O)c5ccc(NC(CCN6CCC(C(=O)OCCCP(=O)(O)O)CC6)CSc6ccccc6)c(S(=O)(=O)C(F)(F)F)c5)cc4)CC3)c2)c(-c2ccc(Cl)cc2)n1C(C)C", "system": "NCI-H1876 complex spheroid growth, % test/control", "viability, T/C / %": 98.1}
{"compound": "NC1CCC(NC2CC2c2ccccc2)CC1 (centres undefined) + CNC(C)C(=O)NC1CN(S(=O)(=O)c2cccc(S(=O)(=O)N3CCC4CCC(C(=O)NC(c5ccccc5)c5ccccc5)N4C(=O)C(NC(=O)C(C)NC)C3)c2)CCC2CCC(C(=O)NC(c3ccccc3)c3ccccc3)N2C1=O", "system": "NCI-H1876 complex spheroid growth, % test/control", "viability, T/C / %": 137}
{"compound": "Cn1ncnc1[C@H]1c2n[nH]c(=O)c3cc(F)cc(c23)N[C@@H]1c1ccc(F)cc1 + Cc1c(S(C)(=O)=O)c(-c2cc(F)cc(N3CCN(c4ccc(NS(=O)(=O)c5ccc(NC(CCN6CCC(C(=O)OCCCP(=O)(O)O)CC6)CSc6ccccc6)c(S(=O)(=O)C(F)(F)F)c5)cc4)CC3)c2)c(-c2ccc(Cl)cc2)n1C(C)C", "system": "NCI-H1876 complex spheroid growth, % test/control", "viability, T/C / %": 91.7}

Entry under review: NC1CCC(NC2CC2c2ccccc2)CC1 (centres undefined) + Cc1c(S(C)(=O)=O)c(-c2cc(F)cc(N3CCN(c4ccc(NS(=O)(=O)c5ccc(NC(CCN6CCC(C(=O)OCCCP(=O)(O)O)CC6)CSc6ccccc6)c(S(=O)(=O)C(F)(F)F)c5)cc4)CC3)c2)c(-c2ccc(Cl)cc2)n1C(C)C . Reported viability, T/C? 109

---

Measured viability, T/C, listed per entry for reference.
Tested on: NCI-H1876 complex spheroid growth, % test/control
Assay: Anticancer human tumor NCI-H1876 cell line growth inhibition [Asc];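 further: compound exposure lasted 7 days starting three days after seeding; 100% = DMSO vehicle control wells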
Conditions: second compound 1 µM; first compound 3 µM; stronger effect = lower value
Report the figure in % without appending any unit label.

Previously resolved entries follow.
{"compound": "CCN1C(C(=O)NC23CCC(C(=O)O)(CC2)CC3)C(c2cccc(Cl)c2F)C2(C(=O)Nc3cc(Cl)ccc32)C12CCCCC2 (centres undefined) + CNC(C)C(=O)NC1CN(S(=O)(=O)c2cccc(S(=O)(=O)N3CCC4CCC(C(=O)NC(c5ccccc5)c5ccccc5)N4C(=O)C(NC(=O)C(C)NC)C3)c2)CCC2CCC(C(=O)NC(c3ccccc3)c3ccccc3)N2C1=O", "experimental readout": "viability, T/C", "value units": "%", "recorded number": 97.9}
{"compound": "Cc1nc(N2CCC3(CC2)COC(C)C3N)c(CO)nc1Sc1ccnc(N)c1Cl (centres undefined) + CNC(C)C(=O)NC1CN(S(=O)(=O)c2cccc(S(=O)(=O)N3CCC4CCC(C(=O)NC(c5ccccc5)c5ccccc5)N4C(=O)C(NC(=O)C(C)NC)C3)c2)CCC2CCC(C(=O)NC(c3ccccc3)c3ccccc3)N2C1=O", "experimental readout": "viability, T/C", "value units": "%", "recorded number": 74.8}
{"compound": "Cc1nc(N2CCC3(CC2)COC(C)C3N)c(CO)nc1Sc1ccnc(N)c1Cl (centres undefined) + Cc1c(S(C)(=O)=O)c(-c2cc(F)cc(N3CCN(c4ccc(NS(=O)(=O)c5ccc(NC(CCN6CCC(C(=O)OCCCP(=O)(O)O)CC6)CSc6ccccc6)c(S(=O)(=O)C(F)(F)F)c5)cc4)CC3)c2)c(-c2ccc(Cl)cc2)n1C(C)C", "experimental readout": "viability, T/C", "value units": "%", "recorded number": 74.2}

Entry under review: CCN1C(C(=O)NC23CCC(C(=O)O)(CC2)CC3)C(c2cccc(Cl)c2F)C2(C(=O)Nc3cc(Cl)ccc32)C12CCCCC2 (centres undefined) + Cc1c(S(C)(=O)=O)c(-c2cc(F)cc(N3CCN(c4ccc(NS(=O)(=O)c5ccc(NC(CCN6CCC(C(=O)OCCCP(=O)(O)O)CC6)CSc6ccccc6)c(S(=O)(=O)C(F)(F)F)c5)cc4)CC3)c2)c(-c2ccc(Cl)cc2)n1C(C)C . Reported viability, T/C? 60.4
